molecular target: Human immunodeficiency virus type 1 reverse transcriptase (Human immunodeficiency virus 1)
measurement_type: IC50 (nM)
Kindly answer with a numeric value in nM, unit omitted.

Item Cc1cc(-c2ccccc2)cc(C)c1Oc1cc(N)nc(Nc2ccc(C#N)cc2)n1 has what recorded IC50?
45

What about COc1ccc(-c2cc(C)c(Oc3cc(N)nc(Nc4ccc(C#N)cc4)n3)c(C)c2)cc1 ?
54

Repeat for the following compound: COc1ccccc1-c1cc(C)c(Oc2cc(N)nc(Nc3ccc(C#N)cc3)n2)c(C)c1
122

Now this one: Cc1cc(-c2ccccc2C#N)cc(C)c1Oc1cc(N)nc(Nc2ccc(C#N)cc2)n1
40

Now the same for Cc1cc(-c2cccc(F)c2)ccc1Oc1cc(N)nc(Nc2ccc(C#N)cc2)n1
101

Follow-up entry: Cc1cc(-c2ccccc2)ccc1Oc1cc(N)nc(Nc2ccc(C#N)cc2)n1
39

---

Consider the following molecules; for each one, report its CC50.
assay: Cytotoxicity against human MT4 cells assessed as reduction in cell viability by MTT assay; assay type: toxicity, cell-based
Express it in µM; write the number only.

Using the record for Cc1cc(-c2ccc(C#N)c(C#N)c2)ccc1Oc1cc(N)nc(Nc2ccc(C#N)cc2)n1 , report its CC50.
76.7

Record: Cc1cc(-c2ccc(F)cc2)cc(C)c1Oc1cc(N)nc(Nc2ccc(C#N)cc2)n1
23.1

# repeat for Cc1cc(-c2ccc(C#N)cc2)cc(C)c1Oc1cc(N)nc(Nc2ccc(C#N)cc2)n1
18.1

Here is the next molecule: Cc1ccccc1-c1cc(C)c(Oc2cc(N)nc(Nc3ccc(C#N)cc3)n2)c(C)c1
25.6

// query: Cc1ccc(-c2cc(C)c(Oc3cc(N)nc(Nc4ccc(C#N)cc4)n3)c(C)c2)cc1
10

Request: Cc1cc(Oc2cc(N)nc(Nc3ccc(C#N)cc3)n2)ccc1-c1ccc(C#N)cc1
34.3

Same question for Cc1cc(-c2ccccc2F)cc(C)c1Oc1cc(N)nc(Nc2ccc(C#N)cc2)n1 please.
29.3

Also Cc1cc(-c2ccccc2)cc(C)c1Oc1cc(N)nc(Nc2ccc(C#N)cc2)n1 ?
25.6

Now try COc1cc(Oc2cc(N)nc(Nc3ccc(C#N)cc3)n2)ccc1-c1ccc(C#N)cc1 .
12.9

---

assay: Clearance in Sprague-Dawley rat at 1 mg/kg, iv measured after 0.083 to 24 hrs by LC-MS analysis; type: ADME, organism-based; details: in vivo, time 0.083-24 hrs
measurement_type: clearance (mL/min/kg)
Respond numerically; units are mL/min/kg and should not be typed.

Return reported clearance; argument: COc1cc(-c2ccc(C#N)cc2)ccc1Oc1cc(N)nc(Nc2ccc(C#N)cc2)n1
51.6

---

target: Human immunodeficiency virus type 1 reverse transcriptase (Human immunodeficiency virus 1, UniProt Q72547)
Grouping by measured IC50 is done with the following cut points: LOW (below 40 nM), MEDIUM (40 nM to below 70 nM), HIGH (70 nM or more)

Bin this entry: Cc1cc(-c2ccc(C#N)c(C#N)c2)ccc1Oc1cc(N)nc(Nc2ccc(C#N)cc2)n1
HIGH

Now try Cc1cc(-c2ccc(F)cc2)cc(C)c1Oc1cc(N)nc(Nc2ccc(C#N)cc2)n1 .
MEDIUM

How about Cc1cc(-c2cccc(C#N)c2)cc(C)c1Oc1cc(N)nc(Nc2ccc(C#N)cc2)n1 ?
MEDIUM

// same read-out, input: Cc1cccc(-c2cc(C)c(Oc3cc(N)nc(Nc4ccc(C#N)cc4)n3)c(C)c2)c1
HIGH

Now consider Cc1cc(-c2ccc(Cl)cc2)cc(C)c1Oc1cc(N)nc(Nc2ccc(C#N)cc2)n1 and answer again.
HIGH

Another molecule to check: Cc1cc(-c2cccc(Cl)c2)cc(C)c1Oc1cc(N)nc(Nc2ccc(C#N)cc2)n1
HIGH

Try this molecule too: Cc1cc(-c2ccc(C#N)cc2)ccc1Oc1cc(N)nc(Nc2ccc(C#N)cc2)n1
LOW

Please do the same for Cc1cc(-c2cccc(F)c2)cc(C)c1Oc1cc(N)nc(Nc2ccc(C#N)cc2)n1 as well.
MEDIUM

Cc1cc(-c2ccccc2F)ccc1Oc1cc(N)nc(Nc2ccc(C#N)cc2)n1 , same question.
MEDIUM

How about this molecule: Cc1cc(-c2ccccc2Cl)cc(C)c1Oc1cc(N)nc(Nc2ccc(C#N)cc2)n1
HIGH

And Cc1ccccc1-c1cc(C)c(Oc2cc(N)nc(Nc3ccc(C#N)cc3)n2)c(C)c1 ?
HIGH

Same lookup for Cc1cc(Oc2cc(N)nc(Nc3ccc(C#N)cc3)n2)ccc1-c1ccc(C#N)cc1 , please.
LOW

// same read-out, input: COc1cccc(-c2cc(C)c(Oc3cc(N)nc(Nc4ccc(C#N)cc4)n3)c(C)c2)c1
HIGH

// next record Cc1cc(-c2ccc(C#N)c(F)c2)cc(C)c1Oc1cc(N)nc(Nc2ccc(C#N)cc2)n1
MEDIUM

Same read-out for Cc1cc(-c2ccc(F)cc2)ccc1Oc1cc(N)nc(Nc2ccc(C#N)cc2)n1 ?
MEDIUM

Another molecule to look at: Cc1cc(-c2ccc(C#N)cc2)cc(C)c1Oc1cc(N)nc(Nc2ccc(C#N)cc2)n1
LOW

Same read-out for Cc1cc(-c2ccccc2F)cc(C)c1Oc1cc(N)nc(Nc2ccc(C#N)cc2)n1 ?
MEDIUM
